value_kind: melting point

INSERT INTO measurements (compound, value_reported) VALUES
  ('NC(=O)C1CCN(Cc2cnc3cc(NC(=O)c4ccc(-c5ccc(Cl)cc5)cc4)ccc3c2)CC1', '260 °C'),
  ('CCOC(=O)[C@H](CCSC)NC(=O)C1(Br)SC=C(Br)C1Br (stereo partly drawn)', '80 to 82 °C'),
  ('CN1C(=O)SC(C)(S(=O)(=O)c2cccc3c(Br)cccc23)C1=O (stereo not drawn)', '160 to 161 °C'),
  ('Cc1nnc2n1-c1ccc(C#CCN3C(=O)C4CC=CCC4C3=O)cc1C(c1ccccc1F)=NC2 (stereo not drawn)', '259 to 261 °C'),
  ('C#CCOc1cc(Oc2ccc(Cl)cc2Cl)ncn1', '107 °C'),
  ('CC(C)CC(Oc1c(Br)cc(-c2ccc(-c3c(Cc4ccccc4)oc4ccccc34)cc2)cc1Br)C(=O)O (stereo not drawn)', '81 to 83 °C'),
  ('Cc1cc2c(c3ccc(=O)[nH]c13)OC(CSCCN(C)C)C2 (stereo not drawn)', '163 to 165 °C'),
  ('O=c1oc2ccccc2n1CCCCl', '62 to 64 °C'),
  ('COC(=O)c1ccccc1SC1=C(O)CC(CCC(C)C)(c2ccccc2)OC1=O (stereo not drawn)', '115 to 116 °C'),
  ('CN(C)c1c(C#N)c(N)nn1C', '100 to 102 °C'),
  ('CCCCOC(=O)c1ccccc1-c1ccc(Cn2c(CCCC)nc(C(C)(C)O)c2C(=O)O)cc1', '158 to 159 °C'),
  ('O=C1Nc2ccccc2SC1CCCCO (stereo not drawn)', '101 to 102 °C'),
  ('O=[N+]([O-])c1cc(Br)ccc1-c1ccc(F)cc1F', '52 to 53 °C'),
  ('CCCCCCCC(=O)Oc1ccc(C(=O)O)cc1', '51 °C'),
  ('C=CCn1ccnc1C(O)(c1ccccc1)c1ccc(Cl)cc1 (stereo not drawn)', '165 to 166 °C'),
  ('CC(=O)C1(COC(=O)Oc2ccccc2)CC2C=CC1C2 (stereo not drawn)', '76 to 77 °C'),
  ('N#Cc1c(Cl)c(F)cc2c(=O)c(C(=O)O)cn(C3CC3)c12', '281 to 282 °C'),
  ('CCCCN1C(=O)CC(C(=O)Nc2nccs2)C(=O)c2ccc(Cl)cc21 (stereo not drawn)', '238 to 240 °C'),
  ('CCc1cccc(CC)c1NC(=O)NC1(c2ccccc2)CCCC1', '215 to 218 °C'),
  ('Cc1ccc2c(c1Cl)S(=O)(=O)NCN2C1CC1', '230 to 232 °C'),
  ('Cc1cccc(-c2[nH]c(C(C)C)nc2-c2cccc(-c3ccc(S(=O)(=O)N4CCN(C)CC4)cc3)c2)n1', '110 to 116 °C'),
  ('COc1cccc2c(Nc3cccc(N(C)C)c3)c(C#N)cnc12', '222 to 225 °C'),
  ('COc1cc(C(=O)COC(C)=O)ccc1OCCCCl', '93 to 96 °C');

----------
value_kind: melting point

INSERT INTO assay_data (compound, value_reported) VALUES
  ('CCC(=O)OC1=C(CCCCCCCCC[Si](C)(C)C)C(=O)c2ccccc2C1=O', '41 to 43 °C'),
  ('Cc1nc(C)c(-c2ccc(C#N)cc2)s1', '108 to 110 °C'),
  ('Cc1nc2cnccc2n1-c1ccc(COc2ccccc2C(=O)O)cc1', '217 to 219 °C'),
  ('CCS(=O)(=O)N(C)C1CCCOc2ccccc21 (centres undefined)', '122 to 124 °C');

Values from a melting point compilation (Tetko et al.; mined from patent text by program, amines drawn as free bases though some values may be those of a salt)
